assay: Stability in presence of porcine liver esterase assessed as esterase-mediated compound hydrolysis by measuring ratio of intact compounds and their corresponding acids in pH 7.4 phosphate buffer at 37 degC at 60 mins post incubation by RP-HPLC; format: ADME; settings: pig, isolated protein, pH 7.4, 1 h
observed-property: Ratio

Check out these entries, answers already filled in.
molecule	Ratio
CC/C=C\C[C@H]1C(=O)C=C[C@H]1CC(=O)OCCOCCO	3.1
CC/C=C\C[C@H]1C(=O)C=C[C@H]1CC(=O)OC1CCCCC1	1.1
CC/C=C\C[C@H]1C(=O)C=C[C@H]1CC(=O)OCCOCCOCCOC	0
CC/C=C\C[C@H]1C(=O)C=C[C@H]1CC(=O)OCCOCCOC	0
CC/C=C\C[C@H]1C(=O)C=C[C@H]1CC(=O)OC(C)(C)C	9.8
CC/C=C\CC1C(=O)C=CC1CC(=O)OC (centres undefined)	0
CC/C=C\C[C@H]1C(=O)C=C[C@H]1CC(=O)OCCOC	0
CC/C=C\C[C@H]1C(=O)C=C[C@H]1CC(=O)OC(C)c1ccccc1 (some centres undefined)	0.4
CC/C=C\C[C@H]1C(=O)C=C[C@H]1CC(=O)OC(C)COC (some centres undefined)	0.2
CC/C=C\C[C@H]1C(=O)C=C[C@H]1CC(=O)OC(C)C	0.1

I: CC/C=C\C[C@H]1C(=O)C=C[C@H]1CC(=O)OC(C)CC (some centres undefined)
II: CC/C=C\C[C@H]1C(=O)C=C[C@H]1CC(=O)OCc1ccccc1
III: CC/C=C\C[C@H]1C(=O)C=C[C@H]1CC(=O)OCCO
IV: CC/C=C\C[C@H]1C(=O)C=C[C@H]1CC(=O)OCCOCCOCCO
Put the entries in order of Ratio, starting with the largest number. Provide your answer as the labels ordered per the instruction.
IV, III, I, II

###

experiment: Cytotoxicity in mouse RAW264.7 cells after 24 hrs by MTT assay; assay type: cell-based; details: read-out: TC50
observed-property: CC50 at 24 h (µM)
Write down the numeric answer in µM and omit the unit.

Check out these entries, answers already filled in.
compound	unit	CC50 at 24 h
CC/C=C\C[C@H]1C(=O)C=C[C@H]1CC(=O)OCCOCCOCCO	µM	162
CC/C=C\CC1C(=O)C=CC1CC(=O)OC (stereo unspecified)	µM	140
CC/C=C\C[C@H]1C(=O)C=C[C@H]1CC(=O)Oc1ccccc1OC	µM	161
CC/C=C\C[C@H]1C(=O)C=C[C@H]1CC(=O)OCCCCC	µM	37
CC/C=C\C[C@H]1C(=O)C=C[C@H]1CC(=O)OCCC	µM	35
CC/C=C\C[C@H]1C(=O)C=C[C@H]1CC(=O)Oc1ccccc1	µM	158
CC/C=C\C[C@H]1C(=O)C=C[C@H]1CC(=O)OCCCC	µM	31
CC/C=C\C[C@H]1C(=O)C=C[C@H]1CC(=O)OCCOC	µM	160

Tell me its CC50 at 24 h given "CC/C=C\C[C@H]1C(=O)C(Cl)=C[C@H]1CC(=O)OC(C)(C)C" as the entry.
11.5

Tell me its CC50 at 24 h given "CC/C=C\C[C@H]1C(=O)C=C[C@H]1CC(=O)OCCOCCO" as the entry.
166

Tell me its CC50 at 24 h given "CC/C=C\C[C@H]1C(=O)C=C[C@H]1CC(=O)Oc1ccc(O)cc1" as the entry.
49
